Test system: THRa homodimer (NR concentration 90 nM)
Test: PBM binding z-score (relative to random genomic background probes); higher = stronger binding; sequences stand for … in GC…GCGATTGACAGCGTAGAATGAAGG
REPORTED_ENDPOINT: PBM binding z-score
Lab note: record just the number, no unit beside it.

Lab note: measured PBM binding z-score of TTACCAATGTGAAAGGTCGTTGATGCACGCCTTG was 0.0994

Lab note: measured PBM binding z-score of TGTAGTTGGTCAAAGGTCACACACTCGAAATGCG was 2.18

Lab note: measured PBM binding z-score of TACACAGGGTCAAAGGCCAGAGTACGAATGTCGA was 0.79

Lab note: measured PBM binding z-score of CGAACTAGATCAGAACAGGACAGTGAAGGATGAT was -0.243

Lab note: measured PBM binding z-score of TCATATAGGTAAATGCTAGGTTAAAGTCCGATCT was 0.664

Lab note: measured PBM binding z-score of CCTACTGGGCCACGAAAGGTCTTTGATTCAGTGA was -0.141

Lab note: measured PBM binding z-score of CGTCCAAGGTCATAGGAGGTCAGAGAAGACAGAT was 3.44

Lab note: measured PBM binding z-score of ATATGCAGGTTAGCTGGGGTCATTCAGACTAGGC was 2.98

Lab note: measured PBM binding z-score of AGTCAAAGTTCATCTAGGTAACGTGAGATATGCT was 0.297

Lab note: measured PBM binding z-score of GCTATTTGGTCAGTAAAAGGTCACACACCGGTCG was 2.43

Lab note: measured PBM binding z-score of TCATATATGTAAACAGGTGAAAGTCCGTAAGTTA was 0.27

Lab note: measured PBM binding z-score of TCCCGGAGGACACGAAAGGTCAGAGCTCGACATC was 1.31

Lab note: measured PBM binding z-score of CCTAGCTGGTCAGGAGGTCACACACCGGATATGA was 2.01

Lab note: measured PBM binding z-score of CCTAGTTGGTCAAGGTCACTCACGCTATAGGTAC was 3.83

Lab note: measured PBM binding z-score of CCGACTGGGCCAAGGTTACCATAACGCACAGCCA was 0.784

Lab note: measured PBM binding z-score of CGTCAAAGTTCAAGGTAACGAAACAGAAAGCAGC was 0.933

Lab note: measured PBM binding z-score of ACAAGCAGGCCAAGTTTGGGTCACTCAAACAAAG was 0.738

Lab note: measured PBM binding z-score of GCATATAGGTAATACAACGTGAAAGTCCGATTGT was -0.557

Lab note: measured PBM binding z-score of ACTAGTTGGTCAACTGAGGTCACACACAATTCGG was 4.84

Lab note: measured PBM binding z-score of ATATCTAGGTTAAGGGTCATTCAGGTTGGTTCGC was 2.49

Lab note: measured PBM binding z-score of CCTTACGGGTCACTGATAGGTTATAGCATTTGGA was 0.24

Lab note: measured PBM binding z-score of CCTTACGGGTAACTGACAGGTTATAGCATTTGGA was -0.293

Lab note: measured PBM binding z-score of GGAACGAGGGCATTCGAGTTGATAACATGGCGAT was -0.138

Lab note: measured PBM binding z-score of CGACAAAGTTCAAGGTAACGTAACAGAAAGCAGC was 1.02

Lab note: measured PBM binding z-score of CGAACTAGGTCATCCAGGACAGTGACTACATTGA was 2.2

Lab note: measured PBM binding z-score of ATATCTAGGTAACCAAGTTCAGTGAATGCCGAAC was 0.613

###

System: RARg homodimer (NR concentration 270 nM)
Test: PBM binding z-score (relative to random genomic background probes); higher = stronger binding; sequences stand for … in GC…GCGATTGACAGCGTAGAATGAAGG
Classify by measured PBM binding z-score: YES if it is equal to or exceeds 0.6, NO if it is smaller.

Test whether the sequence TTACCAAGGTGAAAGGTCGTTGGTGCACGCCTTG records PBM binding z-score of 0.6 or higher.
YES

Test whether the sequence CAAACTAGATCAAGAGGTCAAAGTCCGCTTCCCG records PBM binding z-score of 0.6 or higher.
YES

Test whether the sequence CGGACTAGGTCATTGACAGGACAGTGAATAGTAA records PBM binding z-score of 0.6 or higher.
YES

Test whether the sequence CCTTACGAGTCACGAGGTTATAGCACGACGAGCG records PBM binding z-score of 0.6 or higher.
YES

Test whether the sequence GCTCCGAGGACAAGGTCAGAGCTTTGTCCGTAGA records PBM binding z-score of 0.6 or higher.
YES

Test whether the sequence GGAACAAGGGCATTCGAGTTGATAGCATGGCGAT records PBM binding z-score of 0.6 or higher.
YES

Test whether the sequence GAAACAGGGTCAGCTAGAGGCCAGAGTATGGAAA records PBM binding z-score of 0.6 or higher.
YES

Test whether the sequence CCGACTGGGGCATAAGGTTGCCATAAGCCAGCCC records PBM binding z-score of 0.6 or higher.
NO

Test whether the sequence GCGACTGGGGCATCAGCAGGTTACCAGAACTTAA records PBM binding z-score of 0.6 or higher.
NO

Test whether the sequence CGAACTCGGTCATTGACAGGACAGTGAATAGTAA records PBM binding z-score of 0.6 or higher.
YES

Test whether the sequence ACTATTAGTTGACATAGGGCAACCGATACGACGC records PBM binding z-score of 0.6 or higher.
YES

Test whether the sequence GCTTACGGGTCAAATGTTATAGCATGAATAGAAT records PBM binding z-score of 0.6 or higher.
YES

Test whether the sequence ATCTCTAGGTAAAGTTAAGTGAAAGATCGATAGA records PBM binding z-score of 0.6 or higher.
NO

Test whether the sequence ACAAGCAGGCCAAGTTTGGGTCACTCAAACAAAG records PBM binding z-score of 0.6 or higher.
YES

Test whether the sequence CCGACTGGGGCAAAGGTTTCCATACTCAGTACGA records PBM binding z-score of 0.6 or higher.
NO

Test whether the sequence CCGAGCAGGTTATGGGGCATTCAGGCAACGGTGA records PBM binding z-score of 0.6 or higher.
NO

Test whether the sequence ATCTCTAAGTAACCAAGTTCAGTGAATGCCGAAC records PBM binding z-score of 0.6 or higher.
NO

Test whether the sequence TCTTGTAGATCAATGGTTAAGAAAGCCGAAGCCT records PBM binding z-score of 0.6 or higher.
NO

Test whether the sequence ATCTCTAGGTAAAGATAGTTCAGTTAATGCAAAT records PBM binding z-score of 0.6 or higher.
YES

Test whether the sequence CCTTACGGGTCACTGACATGTTATAGCATTTGGA records PBM binding z-score of 0.6 or higher.
YES

Test whether the sequence ACTATTAGTTGAGACGAGGGCAACCCATAGGTTG records PBM binding z-score of 0.6 or higher.
YES

Test whether the sequence AGAACGAGGGCAATGAGGTGATAGCACGGGTGGC records PBM binding z-score of 0.6 or higher.
YES

Test whether the sequence GCGACTGGGGCAAAGCAGGTTTCCATAAGGTTGG records PBM binding z-score of 0.6 or higher.
NO

Test whether the sequence ATCTCTAAGTAAAAGTTCAGTGAATCCCGAGGAT records PBM binding z-score of 0.6 or higher.
YES

Test whether the sequence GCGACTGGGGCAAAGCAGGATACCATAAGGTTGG records PBM binding z-score of 0.6 or higher.
NO

###

Test system: PPARg DBDmut:RXRa IVT, anti-PPARg (DBD mutation: PPARg1 K132A/R137A, NR concentration 270 nM, RXRa partner concentration 90 nM)
Test: PBM binding z-score (relative to random genomic background probes); higher = stronger binding; sequences stand for … in GC…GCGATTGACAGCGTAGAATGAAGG
Classify by measured PBM binding z-score: yes if it is equal to or exceeds 0.7, no if it is smaller.

Test whether the sequence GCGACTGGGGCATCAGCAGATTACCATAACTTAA records PBM binding z-score of 0.7 or higher.
no

Test whether the sequence CGCACTAGGTCAAGGACAGTGAATCTCCGCACGC records PBM binding z-score of 0.7 or higher.
yes

Test whether the sequence ACTAGCAGGCCAAATTTGGGTCACTCAAACAAAG records PBM binding z-score of 0.7 or higher.
no

Test whether the sequence CCAACTAGGTCATCCAGGACAGTGAATACATTGA records PBM binding z-score of 0.7 or higher.
yes
